target: D1 receptor (Homo sapiens); experiment: biochemical
Sequence (P21728 whole entry): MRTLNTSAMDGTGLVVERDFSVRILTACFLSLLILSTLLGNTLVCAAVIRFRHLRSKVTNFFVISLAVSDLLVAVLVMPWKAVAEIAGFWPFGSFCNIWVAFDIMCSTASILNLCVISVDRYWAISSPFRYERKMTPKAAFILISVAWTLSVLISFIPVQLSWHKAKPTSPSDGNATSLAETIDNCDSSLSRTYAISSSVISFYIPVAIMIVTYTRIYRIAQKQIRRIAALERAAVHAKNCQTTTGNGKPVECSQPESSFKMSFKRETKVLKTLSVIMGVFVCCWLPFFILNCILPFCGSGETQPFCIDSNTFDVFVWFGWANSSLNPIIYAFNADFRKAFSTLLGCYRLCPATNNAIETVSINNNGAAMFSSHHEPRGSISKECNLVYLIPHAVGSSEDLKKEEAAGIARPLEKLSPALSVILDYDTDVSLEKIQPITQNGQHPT
Observed property: Ki

Molecular string: Fc1ccc(CCCCN2CCN(c3cccnc3)CC2)cc1.O=C(O)C(=O)O
Recorded result: > 2 µM
